Consider the following compounds and their measured MIC readings.
- Test system: Streptococcus pyogenes
- experimental details: MIC, broth microdilution with Alamar Blue
- Format: cell-based
- assay conditions: Streptococcus pyogenes; read-out: MIC S. pyogenes
Unit µg/mL implied. Number only.

// below: answered compounds
[
  {
    "compound": "CCc1nc(N)nc(N)c1C#CC(C)c1cc(-c2ccccc2)ccc1OC (stereo not shown) [Compound 11]",
    "MIC [µg/mL]": 0.74
  },
  {
    "compound": "COc1cc(-c2ccncc2)cc(C(C)C#Cc2c(C)nc(N)nc2N)c1 (stereo not shown) [Compound 24]",
    "MIC [µg/mL]": 0.04
  },
  {
    "compound": "COc1ccc(-c2ccccc2)cc1C(C)C#Cc1c(C)nc(N)nc1N (stereo not shown) [Compound 10]",
    "MIC [µg/mL]": 0.18
  }
]

Kindly consider the entry below.
State the recorded MIC for this entry: CCc1nc(N)nc(N)c1C#CCc1cccc(-c2ccncc2)c1 [Compound 28]
0.04

* * *

- Tested on: hVISA Mu3
- experimental details: MIC against clinical isolates of MRSA
- Assay type: cell-based
- assay conditions: Staphylococcus aureus; heteroresistant vancomycin intermediate S. aureus; read-out: MIC hVISA Mu3
readout label: MIC (µg/mL)
Unit µg/mL implied. Number only.

// below: answered compounds
[
  {
    "compound": "CCc1nc(N)nc(N)c1C#CC(C)c1cc(OC)cc(-c2ccncc2)c1 (stereo not drawn)",
    "measured on": "hVISA Mu3",
    "readout label": "MIC",
    "measured result": 0.09
  },
  {
    "compound": "CCc1nc(N)nc(N)c1C#CCc1cccc(-c2ccncc2)c1",
    "measured on": "hVISA Mu3",
    "readout label": "MIC",
    "measured result": 0.045
  },
  {
    "compound": "COc1cc(-c2ccncc2)cc(C(C)C#Cc2c(C)nc(N)nc2N)c1 (stereo not drawn)",
    "measured on": "hVISA Mu3",
    "readout label": "MIC",
    "measured result": 0.045
  },
  {
    "compound": "CCc1nc(N)nc(N)c1C#CCc1cc(OC)cc(-c2ccncc2)c1",
    "measured on": "hVISA Mu3",
    "readout label": "MIC",
    "measured result": 0.045
  },
  {
    "compound": "CCc1nc(N)nc(N)c1C#CCc1cccc(-c2cccnc2)c1",
    "measured on": "hVISA Mu3",
    "readout label": "MIC",
    "measured result": 0.36
  }
]

Kindly consider the entry below.
State the recorded MIC for this entry: "CCc1nc(N)nc(N)c1C#CCc1cc(-c2ccncc2)ccc1OC"
0.04

* * *

- measured on: S. aureus DHFR (Staphylococcus aureus, UniProt P0A017)
- Construct: the DHFR gene was inserted into vector pET41 with a His8 tag for purification; His8; made in house; host or cells: E. coli BL21 (DE3)
- Sequence (P0A017 whole entry): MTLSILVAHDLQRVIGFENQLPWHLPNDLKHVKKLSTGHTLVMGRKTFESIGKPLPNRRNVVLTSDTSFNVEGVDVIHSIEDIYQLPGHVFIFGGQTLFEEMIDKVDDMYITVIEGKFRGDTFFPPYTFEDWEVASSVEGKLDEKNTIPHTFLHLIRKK
- experimental details: biochemical
- Type: biochemical
- assay conditions: IC50 (human)/IC50 (pathogen)
readout label: Selectivity (h/Sa)

// below: answered compounds
[
  {
    "compound": "CCc1nc(N)nc(N)c1C#CCc1cc(OC)cc(-c2ccccc2)c1 [Compound 9]",
    "Selectivity (h/Sa)": 2.4
  },
  {
    "compound": "CCc1nc(N)nc(N)c1C#CCc1cccc(-c2ccccc2)c1 [Compound 8]",
    "Selectivity (h/Sa)": 10
  },
  {
    "compound": "CCc1nc(N)nc(N)c1C#CCc1cccc(-c2ccncc2)c1 [Compound 28]",
    "Selectivity (h/Sa)": 26
  },
  {
    "compound": "COc1cc(-c2ccncc2)cc(C(C)C#Cc2c(C)nc(N)nc2N)c1 (centres unmarked) [Compound 24]",
    "Selectivity (h/Sa)": 58
  },
  {
    "compound": "CCc1nc(N)nc(N)c1C#CC(C)c1cc(-c2ccccc2)ccc1OC (centres unmarked) [Compound 11]",
    "Selectivity (h/Sa)": 1.5
  },
  {
    "compound": "CCc1nc(N)nc(N)c1C#CCc1cc(OC)cc(-c2ccncc2)c1 [Compound 27]",
    "Selectivity (h/Sa)": 5
  },
  {
    "compound": "CCc1nc(N)nc(N)c1C#CCc1cc(-c2ccccc2)ccc1OC [Compound 7]",
    "Selectivity (h/Sa)": 125
  },
  {
    "compound": "CCc1nc(N)nc(N)c1C#CCc1cccc(-c2cncnc2)c1 [Compound 37]",
    "Selectivity (h/Sa)": 5
  },
  {
    "compound": "CCc1nc(N)nc(N)c1C#CCc1cccc(-c2cccnc2)c1 [Compound 36]",
    "Selectivity (h/Sa)": 9
  },
  {
    "compound": "CCc1nc(N)nc(N)c1C#CCc1cc(-c2ccncc2)ccc1OC [Compound 26]",
    "Selectivity (h/Sa)": 16
  }
]

Request body: readout Selectivity (h/Sa), system S. aureus DHFR (Staphylococcus aureus, UniProt P0A017), query COc1cc(C(C)C#Cc2c(C)nc(N)nc2N)cc(N2CCOCC2)c1 (centres unmarked) [Compound 31] . Return the value.
14

* * *

- measured on: Human DHFR (Homo sapiens, UniProt P00374)
- experimental details: DHFR enzyme inhibition assay (NADPH oxidation, 340 nm)
- Assay type: biochemical
- assay conditions: human DHFR; average of at least three measurements; read-out: IC50 (nM) Human
Consider the following compounds and their measured IC50 readings.
Unit nM implied. Number only.

// below: answered compounds
[
  {
    "compound": "CCc1nc(N)nc(N)c1C#CC(C)c1cc(OC)cc(-c2ccncc2)c1 (stereo not shown) [Compound 25]",
    "measured result": 1300
  },
  {
    "compound": "COc1ccc(-c2ccccc2)cc1C(C)C#Cc1c(C)nc(N)nc1N (stereo not shown) [Compound 10]",
    "measured result": 97
  },
  {
    "compound": "CCc1nc(N)nc(N)c1C#CCc1cccc(-c2ccncc2)c1 [Compound 28]",
    "measured result": 520
  },
  {
    "compound": "CCc1nc(N)nc(N)c1C#CCc1cc(OC)cc(-c2ccccc2)c1 [Compound 9]",
    "measured result": 140
  },
  {
    "compound": "CCc1nc(N)nc(N)c1C#CCc1cc(-c2ccncc2)ccc1OC [Compound 26]",
    "measured result": 330
  },
  {
    "compound": "CCc1nc(N)nc(N)c1C#CCc1cc(OC)cc(-c2ccncc2)c1 [Compound 27]",
    "measured result": 61
  }
]

Request body: readout IC50, system Human DHFR (Homo sapiens, UniProt P00374), query CCc1nc(N)nc(N)c1C#CCc1cccc(-c2ccccc2)c1 [Compound 8] . Return the value.
290

* * *

- measured on: Human DHFR (Homo sapiens)
- experimental details: DHFR enzyme inhibition assay (NADPH oxidation, 340 nm)
- Assay type: biochemical
- assay conditions: human DHFR; average of at least three measurements; read-out: IC50 (nM) Human
- Method: Enzyme inhibition assays were performed by monitoring the rate of NADPH oxidation by the DHFR enzyme at an absorbance of 340 nm over five minutes. Assays were performed in the presence of saturating concentrations of NADPH (100 µM) and initiated with dihydrofolate (1 mM). […] Inhibition was measured at least three times with inhibitor concentrations near the IC50 value and the average IC50 value is reported with a standard deviation.
Binary label based on IC50 with cut-off 300 nM: below gives satisfied, not below gives not satisfied.

Record COc1cc(-c2ccncc2)cc(C(C)C#Cc2c(C)nc(N)nc2N)c1 (centres unmarked) [Compound 24] : is its IC50 strictly below 300 nM?
not satisfied

Record COc1cc(C(C)C#Cc2c(C)nc(N)nc2N)cc(N2CCOCC2)c1 (centres unmarked) [Compound 31] : is its IC50 strictly below 300 nM?
not satisfied

Record CCc1nc(N)nc(N)c1C#CCc1cccc(-c2cccnc2)c1 [Compound 36] : is its IC50 strictly below 300 nM?
satisfied

Record CCc1nc(N)nc(N)c1C#CC(C)c1cc(-c2ccccc2)ccc1OC (centres unmarked) [Compound 11] : is its IC50 strictly below 300 nM?
satisfied

* * *

- measured on: Human DHFR (Homo sapiens)
- Sequence (P00374 1-187): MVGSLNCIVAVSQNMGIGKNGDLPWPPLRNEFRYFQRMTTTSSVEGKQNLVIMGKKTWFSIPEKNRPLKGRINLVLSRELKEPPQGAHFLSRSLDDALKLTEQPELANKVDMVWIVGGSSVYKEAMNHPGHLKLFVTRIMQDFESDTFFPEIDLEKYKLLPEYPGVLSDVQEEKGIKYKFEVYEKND
- experimental details: DHFR enzyme inhibition assay (NADPH oxidation, 340 nm)
- Type: biochemical
readout label: IC50
Don't forget the unit after the value.

State the recorded IC50 for this entry: CCc1nc(N)nc(N)c1C#CCc1cccc(-c2cncnc2)c1 [Compound 37]
160 nM
